The reported numbers originate from patent US20060223879A1.

MEASURED ON: FXR (Homo sapiens, UniProt Q96RI1)
Construct: using a full length FXR on a natural response element; expressed in transfected cells
Sequence (Q96RI1 whole entry, species assumed): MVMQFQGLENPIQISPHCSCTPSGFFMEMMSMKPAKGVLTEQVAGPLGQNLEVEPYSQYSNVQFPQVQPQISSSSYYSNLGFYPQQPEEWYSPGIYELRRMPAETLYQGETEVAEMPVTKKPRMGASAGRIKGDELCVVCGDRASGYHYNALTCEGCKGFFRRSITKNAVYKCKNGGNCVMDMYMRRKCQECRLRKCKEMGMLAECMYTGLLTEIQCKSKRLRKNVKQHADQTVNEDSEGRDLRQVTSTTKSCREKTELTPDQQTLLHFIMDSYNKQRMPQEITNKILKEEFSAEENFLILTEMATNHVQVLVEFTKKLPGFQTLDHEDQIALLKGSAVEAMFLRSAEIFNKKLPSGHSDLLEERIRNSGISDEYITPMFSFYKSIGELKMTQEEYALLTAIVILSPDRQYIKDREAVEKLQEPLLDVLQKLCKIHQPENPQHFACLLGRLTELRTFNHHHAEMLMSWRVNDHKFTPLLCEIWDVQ
ASSAY SUMMARY: cell-based transcription assay, FXR responsive promoter linked to a luciferase reporter
Set-up: scale not given here
PARTICULARS: Tables 1-15; RE not defined in the source
The reader will find reported RE values listed item by item below.
No unit in the answer, please; the number alone is enough.

Before answering, review these 8 worked examples.
Asked: Return the recorded RE value; entry: COC(=O)C=Cc1cccc(N(Cc2ccc(-c3ccc(C(C)=O)s3)cc2)C(=O)C2CCCCC2)c1 [Compound 129]
Given back: 1.48

Asked: Return the recorded RE value; entry: COC(=O)C=Cc1cccc(N(Cc2ccc(C=CC(=O)OC(C)(C)C)cc2OCc2ccccc2)C(=O)C2CCCCC2)c1 [Compound 163]
Given back: 0.38

Asked: Return the recorded RE value; entry: COC(=O)/C=C/c1cccc(N(Cc2ccc(-c3cc(Cl)cc(Cl)c3)cc2)C(=O)C(C)C)c1 [Compound 221]
Given back: 0.54

Asked: Return the recorded RE value; entry: COC(=O)C=Cc1cccc(N(Cc2ccc(C=CCOc3ccccc3)cc2)C(=O)C2CCCCC2)c1 [Compound 158]
Given back: 0.64

Asked: Return the recorded RE value; entry: COC(=O)/C=C/c1cccc(N(Cc2ccc(-c3ccc(F)c(F)c3)cc2)C(=O)C2CCCCC2)c1 [Compound 213]
Given back: 1.70

Asked: Return the recorded RE value; entry: CCOc1cccc(-c2ccc(CN(C(=O)NC(C)C)c3cccc(/C=C/C(=O)OC)c3)cc2)c1 [Compound 228]
Given back: 0.33

Asked: Return the recorded RE value; entry: COC(=O)/C=C/c1cccc(N(Cc2ccc(/C=C/c3c(C)cc(C)cc3C)cc2)C(=O)C(C)C)c1 [Compound 196]
Given back: 0.30

Asked: Return the recorded RE value; entry: COC(=O)/C=C/c1cccc(N(Cc2ccc(-c3cc(Cl)ccc3OC)cc2)C(=O)C(C)C)c1 [Compound 242]
Given back: 0.79

Continuing:
Asked: Return the recorded RE value; entry: COC(=O)/C=C/c1cccc(N(Cc2ccc(/C=C/c3ccccc3F)cc2)C(=O)C(C)C)c1 [Compound 193]
Given back: 1.17

Asked: Return the recorded RE value; entry: COC(=O)/C=C/c1cccc(N(Cc2ccc(/C=C/c3c(F)cccc3F)cc2)C(=O)NC(C)C)c1 [Compound 191]
Given back: 0.21

Asked: Return the recorded RE value; entry: COC(=O)/C=C/c1cccc(N(Cc2ccc(-c3ccc(SC)cc3)cc2)C(=O)C(C)C)c1 [Compound 216]
Given back: 0.98

Asked: Return the recorded RE value; entry: COC(=O)/C=C/c1cccc(N(Cc2ccc(/C=C/c3cc(C(F)(F)F)cc(C(F)(F)F)c3)cc2)C(=O)C(C)C)c1 [Compound 184]
Given back: 0.13
